Reference source: patent US20220411517A1

- tested.on: human IL-1RAcP on cells (human, UniProt Q9NPH3 21-570)
- method.notes: cell-based or functional assay
measurement.name: IC50, IL-8 release, HEKa stimulated with IL-1β (nM)
Numbers only here, please. The scale is nM.

These recorded examples may help you get a feel for the data.
binder	readout.value
Y024149_h_IgG1f_AEASS (antibody, V domains shown, Human IgG1f with AEASS effector-silencing residues, kappa light chain) VH: EVQLVESGGGLVQPGGSLRLSCAASGGTFGGSAMHWVRQAPGKGLVWVSRILTYGGIATYAESVKGRFTISRDNAKNTLYLQMNSLRAEDTAVYYCARGSSEYPKFDIWGQGTLVTVSS VL: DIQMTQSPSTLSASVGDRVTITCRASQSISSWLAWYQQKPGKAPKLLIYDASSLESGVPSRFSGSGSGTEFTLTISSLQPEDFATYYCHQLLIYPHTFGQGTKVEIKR	31
h11C5 YKD (antibody, human IgG1, kappa, V domains shown, Variable domains of h11C5 YKD on the same modified IgG1 kappa constant regions (AEASS); Printed as 'h1105' in much of the text; also called h1105) VH: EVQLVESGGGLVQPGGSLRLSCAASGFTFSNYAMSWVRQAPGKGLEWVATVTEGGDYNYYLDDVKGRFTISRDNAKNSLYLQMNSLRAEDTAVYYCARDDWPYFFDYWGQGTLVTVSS VL: DIQMTQSPSSLSASVGDRVTITCRASENIYSNLAWYQQKPGKSPKLLVYGYKNLADVPSRFSGSGSGTDYTLTISSLQPEDFATYYCQHFKTTPRTFGGGTKVEIKR	670

Now examine the next entry.
*Q* Which measured IC50, IL-8 release, HEKa stimulated with IL-1β value corresponds to Y024148_h_IgG1f_AEASS (antibody, V domains shown, Human IgG1f with AEASS effector-silencing residues, kappa light chain) VH: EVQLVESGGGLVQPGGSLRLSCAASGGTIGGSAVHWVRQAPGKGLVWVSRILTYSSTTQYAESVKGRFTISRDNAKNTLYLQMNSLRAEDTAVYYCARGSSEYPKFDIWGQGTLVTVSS VL: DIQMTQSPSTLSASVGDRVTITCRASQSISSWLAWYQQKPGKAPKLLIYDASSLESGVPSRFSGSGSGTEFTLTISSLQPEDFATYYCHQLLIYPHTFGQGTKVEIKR ?
*A* 35
